Each entry below carries its recorded viability at 28.5 h, 10 µM.
assay: in vitro; details: human, hela cells, % viability
# value in %; strip the unit string

molecule: O=C(CSc1nnc(COc2ccccc2)o1)N1CCN(c2ccccc2)CC1 [CBK267185]
viability at 28.5 h, 10 µM (%): 97.5

# return recorded viability at 28.5 h, 10 µM for entry N=C(Nc1nc(CSc2nnc(N)s2)cc(=O)[nH]1)Nc1ccc(Cl)cc1Cl [CBK268890]
85.5

# return recorded viability at 28.5 h, 10 µM for entry COc1ccc(CNC(=O)C2CCCN(c3nc4c(-c5ccc(C)cc5)csc4c(=O)[nH]3)C2)cc1 (centres unmarked) [CBK215530]
112

# return recorded viability at 28.5 h, 10 µM for entry COc1ccc(-c2nnc3[nH]c(=O)n(C)c(=O)c3n2)cc1OC [CBK263914]
89

# return recorded viability at 28.5 h, 10 µM for entry Cc1cc([N+](=O)[O-])ccc1-c1ccc(C(=O)Nc2ccc(O)c(-c3nc4ccccc4s3)c2)o1 [CBK263421]
93

# return recorded viability at 28.5 h, 10 µM for entry COc1ncc(-c2nccnc2OC)c(OC)n1 [CBK106744]
94.2

* * *

Each entry below carries its recorded viability at 28.5 h, 10 µM.
assay: in vitro; conditions: human, hela cells, % viability
# value in %; strip the unit string

Below, each entry is followed by its recorded viability at 28.5 h, 10 µM result.
molecule: O=C(CN1CCOCC1)N1CCN(C(=O)c2ccco2)CC1 [CBK144478]
viability at 28.5 h, 10 µM [%]: 99.2

molecule: COC(=O)N1CCN(c2ccccc2)CC1 [CBK200414]
viability at 28.5 h, 10 µM [%]: 85.5

molecule: Cc1c(-c2cncn2CC(=O)NC(C)(C)C)[nH]c2ccccc12 [CBK281911]
viability at 28.5 h, 10 µM [%]: 87.5

# return recorded viability at 28.5 h, 10 µM for entry Cc1nn(C)c(C)c1C(C)NC(=O)C1CC2C=CC1C21CC1 (stereo not drawn) [CBK283076]
81.5

# return recorded viability at 28.5 h, 10 µM for entry CCOc1ccc(NC(NC(=O)Nc2ccccc2)C(Cl)(Cl)Cl)cc1 (stereo not drawn) [CBK261294]
99.8

# return recorded viability at 28.5 h, 10 µM for entry CCCN(C(=O)CCc1ccc(C)cc1C)C1CCNCC1 [CBK304302C]
109

* * *

experiment: in vitro; details: human, hela cells, % viability
Label criterion met when viability at 28.5 h, 10 µM < 90%; otherwise criterion not met.

compound: Nc1cc(S(=O)(=O)C(F)(F)F)ccc1C(=O)O [CBK286646]
label_value: criterion met
--
compound: COC1CCC(C(=O)Nc2cnc(-c3cccc(OC(F)(F)F)c3)c(-c3cccnc3)n2)CC1 (stereo not drawn) [CBK036754]
label_value: criterion not met
--
compound: CC(=O)N1C[C@@H]2C[C@H](C1)c1ccc(NS(=O)(=O)c3cccc(F)c3)c(=O)n1C2 [CBK288710]
label_value: criterion not met
--
compound: Clc1cccc(-c2cncc(NCc3ccc4c(c3)OCO4)n2)c1 [CBK065323]
label_value: criterion not met
--
compound: OC(COCc1ccc2c(c1)OCO2)CN1CCN(C(c2ccccc2)c2ccccc2)CC1 (stereo not drawn) [CBK074850C]
label_value: criterion met

We now examine a further compound.
I wonder whether CC12CC(NC(=O)N1c1ccc(C(=O)O)cc1)c1ccccc1O2 (stereo not drawn) [CBK287226] has viability at 28.5 h, 10 µM below 90%. Can you tell?
criterion met
